# tested on: D(1A) dopamine receptor (Rattus norvegicus, UniProt P18901)
# Sequence (P18901 whole entry): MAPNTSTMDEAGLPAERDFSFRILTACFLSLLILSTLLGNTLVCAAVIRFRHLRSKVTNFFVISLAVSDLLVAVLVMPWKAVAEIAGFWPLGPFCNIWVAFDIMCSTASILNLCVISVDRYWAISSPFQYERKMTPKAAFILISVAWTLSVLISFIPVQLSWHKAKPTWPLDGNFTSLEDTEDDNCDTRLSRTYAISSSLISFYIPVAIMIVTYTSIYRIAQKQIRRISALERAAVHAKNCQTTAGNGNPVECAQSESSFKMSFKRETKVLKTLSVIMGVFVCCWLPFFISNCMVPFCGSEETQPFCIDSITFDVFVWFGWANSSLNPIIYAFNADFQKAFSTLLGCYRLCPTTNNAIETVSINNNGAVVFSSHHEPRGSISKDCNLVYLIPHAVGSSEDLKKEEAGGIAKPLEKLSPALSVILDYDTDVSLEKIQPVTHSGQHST
# test description: The nitro derivative RLH-033 shows significant selectivity for the [3H]-(=)-PENT site over […] in rat using [3H]SCH-23390 as radioligand
pKi: −log10 of the molar value.
measured property: pKi

Query block: Tell me pKi reported for O=C(OCCN1CCC(c2ccccc2)CC1)C1(c2ccc([N+](=O)[O-])cc2)CCCC1
Result block: < 4.24

----------
# tested on: UniProt P08482
# Sequence (P08482 whole entry): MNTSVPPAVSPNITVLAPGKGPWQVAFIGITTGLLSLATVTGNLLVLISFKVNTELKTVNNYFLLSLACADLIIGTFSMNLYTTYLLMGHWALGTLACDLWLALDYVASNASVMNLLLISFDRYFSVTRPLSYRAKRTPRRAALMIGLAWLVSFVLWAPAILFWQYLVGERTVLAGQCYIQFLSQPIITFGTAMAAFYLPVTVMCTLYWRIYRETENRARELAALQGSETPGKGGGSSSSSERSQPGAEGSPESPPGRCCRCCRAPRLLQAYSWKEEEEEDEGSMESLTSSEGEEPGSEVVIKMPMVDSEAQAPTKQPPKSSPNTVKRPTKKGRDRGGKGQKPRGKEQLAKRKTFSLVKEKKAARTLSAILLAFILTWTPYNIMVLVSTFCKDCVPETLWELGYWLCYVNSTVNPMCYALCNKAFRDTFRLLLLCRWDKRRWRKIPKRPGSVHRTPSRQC
# test description: The nitro derivative RLH-033 shows significant selectivity for the [3H]-(=)-PENT site over muscarinic 1 in rat using [3H]pirenzepine as radioligand
measured property: Ki

Query block: Tell me Ki reported for O=C(OCCN1CCC(c2ccccc2)CC1)C1(c2ccc([N+](=O)[O-])cc2)CCCC1
Result block: > 17.6 µM

----------
# tested on: Muscarinic acetylcholine receptor M1 (Rattus norvegicus)
# test description: Binding affinity was measured as selectivity for sigma-1 site over muscarinic (M1) receptor in rat using [3H]pirenzepine as radioligand
Below is a list of entries, each paired with its recorded Ki value.
// return numeric value only (unit: µM, not printed)

- entry smiles: "O=C(OCCN1CCC(c2ccccc2)CC1)C1(c2ccccc2)CCCC1"
  Ki [µM]: 0.17

Now, please, on to the next molecule.
Query block: Tell me Ki reported for O=C(OCCN1CCC(c2ccccc2)CC1)C1(c2ccc([N+](=O)[O-])cc2)CCCC1
Result block: 0.88

----------
# tested on: Sigma 2 receptor
# test description: Affinity at sigma-2 site by inhibition of [3H]1,3-di(2-tolyl)guanidine (DTG) binding in guinea pig brain.
# Set-up: species or system Cavia porcellus
measured property: pKi
Entry type: numeric. Quantity: pKi, the -log10 of concentration in molar units.

Query block: Tell me pKi reported for CCN(CC)CCOC(=O)C1(c2ccccc2)CCCC1
Result block: 6.18

----------
# tested on: Glutamate NMDA receptor (Rattus norvegicus) (UniProt P35439+Q00959+Q00960+Q00961+Q62645+Q8VHN2+Q9R1M7)
# test description: Binding affinity was measured as selectivity for sigma-1 site over N-methyl-D-aspartate (NMDA) receptor in rat using [3H]CGS-19,755 as radioligand at 10 uM
measured property: inhibition (%)
// return numeric value only (unit: %, not printed)

The cases that follow already have their inhibition on record.
- entry smiles: "O=C(OCCN1CCC(c2ccccc2)CC1)C1(c2ccc([N+](=O)[O-])cc2)CCCC1"
  unit of measure: "%"
  inhibition: 12
- entry smiles: "Cc1ccccc1NC(=N)Nc1ccccc1C"
  unit of measure: "%"
  inhibition: 0
- entry smiles: "O=C(OCCN1CCC(c2ccccc2)CC1)C1(c2ccccc2)CCCC1"
  unit of measure: "%"
  inhibition: 15
- entry smiles: "O=C(OCCN1CCN(c2ccccc2)CC1)C1(c2ccccc2)CCCC1"
  unit of measure: "%"
  inhibition: 7

Now, please, on to the next compound.
Query block: Tell me inhibition reported for O=C(OCCN1CCN(c2ccccc2)CC1)C1(c2ccc([N+](=O)[O-])cc2)CCCC1
Result block: 19

----------
Below is a list of entries, each paired with its recorded pKi value.
# tested on: Muscarinic acetylcholine receptor M1 (Rattus norvegicus, UniProt P08482)
# Sequence (P08482 whole entry): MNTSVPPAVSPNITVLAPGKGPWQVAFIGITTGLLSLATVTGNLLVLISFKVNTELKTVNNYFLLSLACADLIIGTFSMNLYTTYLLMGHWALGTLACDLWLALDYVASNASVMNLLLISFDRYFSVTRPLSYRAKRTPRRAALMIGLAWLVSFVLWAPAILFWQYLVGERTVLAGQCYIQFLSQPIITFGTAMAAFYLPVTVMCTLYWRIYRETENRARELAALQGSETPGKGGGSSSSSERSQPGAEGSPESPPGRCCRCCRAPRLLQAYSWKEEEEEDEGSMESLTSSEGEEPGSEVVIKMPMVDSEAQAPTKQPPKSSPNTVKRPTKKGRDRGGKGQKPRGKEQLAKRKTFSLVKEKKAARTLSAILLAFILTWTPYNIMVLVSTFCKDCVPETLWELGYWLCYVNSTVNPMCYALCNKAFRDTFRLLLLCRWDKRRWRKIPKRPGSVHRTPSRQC
# test description: Binding affinity was measured as selectivity for sigma-1 site over muscarinic (M1) receptor in rat
Entry type: numeric. Quantity: pKi, the -log10 of concentration in molar units.

The cases that follow already have their pKi on record.
- entry smiles: "Cc1ccccc1NC(=N)Nc1ccccc1C"
  measured property: "pKi"
  observed: 6.13
- entry smiles: "O=C(OCCCN1CCC(c2ccccc2)CC1)C1(c2ccccc2)CCCC1"
  measured property: "pKi"
  observed: 6.77

Query block: Tell me pKi reported for O=C(OCCN1CCN(c2ccccc2)CC1)C1(c2ccccc2)CCCC1
Result block: 5.83

----------
# tested on: Muscarinic acetylcholine receptor M1 (Rattus norvegicus)
# test description: Binding affinity was measured against muscarinic (M1) receptor in rat using [3H]pirenzepine as radioligand
measured property: Ki (nM)
// return numeric value only (unit: nM, not printed)

Query block: Report Ki under test system Muscarinic acetylcholine receptor M1 (Rattus norvegicus) for CC(C)=CCN1CC[C@]2(C)c3cc(O)ccc3C[C@H]1[C@H]2C (single isomer, unassigned) [(+)-PENTAZOCINE] .
Result block: 225

----------
# tested on: UniProt P61169
# test description: Iodo derivative shows a potent sigma binding ligand, had some affinity for D2 site in rat
measured property: Ki (µM)
// return numeric value only (unit: µM, not printed)

Query block: Tell me Ki reported for O=C(OCCN1CCC(c2ccccc2)CC1)C1(c2ccc(I)cc2)CCCC1
Result block: 0.055

----------
# tested on: D(2) dopamine receptor (Rattus norvegicus, UniProt P61169)
# Sequence (P61169 whole entry): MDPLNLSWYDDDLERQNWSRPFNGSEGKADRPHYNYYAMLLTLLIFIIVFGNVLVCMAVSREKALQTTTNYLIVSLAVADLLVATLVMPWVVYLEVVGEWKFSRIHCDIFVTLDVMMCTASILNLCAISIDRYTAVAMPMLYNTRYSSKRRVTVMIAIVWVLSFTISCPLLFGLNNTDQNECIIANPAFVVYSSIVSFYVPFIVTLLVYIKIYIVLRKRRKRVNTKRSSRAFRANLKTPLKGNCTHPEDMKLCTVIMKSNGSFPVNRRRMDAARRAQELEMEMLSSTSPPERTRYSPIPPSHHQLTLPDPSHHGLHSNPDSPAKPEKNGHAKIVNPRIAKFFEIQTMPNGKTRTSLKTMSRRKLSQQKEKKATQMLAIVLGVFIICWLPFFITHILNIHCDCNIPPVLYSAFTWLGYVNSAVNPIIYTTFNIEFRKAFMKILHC
# test description: The nitro derivative RLH-033 shows significant selectivity for the [3H]-(=)-PENT site over dopamine 2 in rat using [3H]SCH-23390 as radioligand
pKi: −log10 of the molar value.
measured property: pKi

Query block: Tell me pKi reported for O=C(OCCN1CCC(c2ccccc2)CC1)C1(c2ccc([N+](=O)[O-])cc2)CCCC1
Result block: < 5.15

----------
# tested on: Glutamate NMDA receptor (Rattus norvegicus) (UniProt P35439+Q00959+Q00960+Q00961+Q62645+Q8VHN2+Q9R1M7)
# test description: Binding affinity was measured as selectivity for sigma-1 site over phencyclidine (PCP) receptor in rat using [3H]TCP as radioligand at 10 uM
Below is a list of entries, each paired with its recorded inhibition value.
// return numeric value only (unit: %, not printed)

The cases that follow already have their inhibition on record.
- entry smiles: "O=C(OCCN1CCN(c2ccccc2)CC1)C1(c2ccc([N+](=O)[O-])cc2)CCCC1"
  observed: 10
- entry smiles: "O=C(OCCN1CCC(c2ccccc2)CC1)C1(c2ccc(I)cc2)CCCC1"
  observed: 8
- entry smiles: "O=C(OCCN1CCN(c2ccccc2)CC1)C1(c2ccc(I)cc2)CCCC1"
  observed: 7
- entry smiles: "O=C(OCCN1CCN(c2ccccc2)CC1)C1(c2ccccc2)CCCC1"
  observed: 1
- entry smiles: "O=C(OCCN1CCC(c2ccccc2)CC1)C1(c2ccccc2)CCCC1"
  observed: 8

Query block: Tell me inhibition reported for O=C(OCCN1CCC(c2ccccc2)CC1)C1(c2ccc([N+](=O)[O-])cc2)CCCC1
Result block: 7

----------
Below is a list of entries, each paired with its recorded inhibition value.
# tested on: Opioid receptor (Rattus norvegicus) (UniProt P33533+P34975+P33535)
# Sequence (P33533 whole entry, looked up): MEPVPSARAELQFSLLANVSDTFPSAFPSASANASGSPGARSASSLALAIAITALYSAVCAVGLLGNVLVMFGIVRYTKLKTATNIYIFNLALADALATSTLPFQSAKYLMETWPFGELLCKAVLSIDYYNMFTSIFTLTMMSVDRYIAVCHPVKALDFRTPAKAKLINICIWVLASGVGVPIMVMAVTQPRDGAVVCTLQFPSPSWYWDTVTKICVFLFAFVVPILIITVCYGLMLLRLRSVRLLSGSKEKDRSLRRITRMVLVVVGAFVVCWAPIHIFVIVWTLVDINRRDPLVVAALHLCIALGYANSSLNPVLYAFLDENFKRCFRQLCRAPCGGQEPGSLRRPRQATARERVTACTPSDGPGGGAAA
# Sequence (P33535 whole entry, looked up): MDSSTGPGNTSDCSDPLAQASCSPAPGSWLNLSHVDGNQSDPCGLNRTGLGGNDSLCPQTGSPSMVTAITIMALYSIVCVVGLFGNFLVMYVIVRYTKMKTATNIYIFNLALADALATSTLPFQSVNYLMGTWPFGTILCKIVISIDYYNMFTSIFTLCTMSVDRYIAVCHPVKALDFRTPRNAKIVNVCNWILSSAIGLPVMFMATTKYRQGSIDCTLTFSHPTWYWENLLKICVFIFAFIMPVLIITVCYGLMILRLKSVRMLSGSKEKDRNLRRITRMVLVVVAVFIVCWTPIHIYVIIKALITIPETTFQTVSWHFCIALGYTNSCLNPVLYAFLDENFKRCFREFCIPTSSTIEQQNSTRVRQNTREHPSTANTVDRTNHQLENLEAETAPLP
# Sequence (P34975 whole entry, looked up): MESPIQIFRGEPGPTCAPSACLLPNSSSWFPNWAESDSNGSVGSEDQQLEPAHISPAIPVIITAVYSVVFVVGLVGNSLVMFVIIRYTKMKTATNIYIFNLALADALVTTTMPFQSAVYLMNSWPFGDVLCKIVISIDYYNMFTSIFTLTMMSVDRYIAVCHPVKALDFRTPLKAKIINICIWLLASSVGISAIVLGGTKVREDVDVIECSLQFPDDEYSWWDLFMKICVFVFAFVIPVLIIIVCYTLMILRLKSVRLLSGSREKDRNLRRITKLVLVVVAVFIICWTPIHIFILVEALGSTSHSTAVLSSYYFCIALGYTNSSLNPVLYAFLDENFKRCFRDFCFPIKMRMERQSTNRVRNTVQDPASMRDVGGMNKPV
# test description: Binding affinity was measured as selectivity for sigma-1 site over opioid receptor in rat using [3H]naloxone as radioligand at 10 uM
// return numeric value only (unit: %, not printed)

- entry smiles: "O=C(OCCN1CCC(c2ccccc2)CC1)C1(c2ccccc2)CCCC1"
  unit of measure: "%"
  inhibition: 63

Query block: Tell me inhibition reported for O=C(OCCN1CCN(c2ccccc2)CC1)C1(c2ccccc2)CCCC1
Result block: 43

Query block: Tell me inhibition reported for O=C(OCCN1CCC(c2ccccc2)CC1)C1(c2ccc(I)cc2)CCCC1
Result block: 25

Query block: Tell me inhibition reported for O=C(OCCN1CCN(c2ccccc2)CC1)C1(c2ccc([N+](=O)[O-])cc2)CCCC1
Result block: 25

Query block: Tell me inhibition reported for O=C(OCCN1CCC(c2ccccc2)CC1)C1(c2ccc([N+](=O)[O-])cc2)CCCC1
Result block: 42

Query block: Tell me inhibition reported for O=C(OCCN1CCN(c2ccccc2)CC1)C1(c2ccc(I)cc2)CCCC1
Result block: 25

FYI, the data here is from ChEMBL document CHEMBL1127555.
